Origin of values: patent US20150094294A1

# assayName: Cytotoxicity against HepG2 cells
# Assay type: cell-based
# measurementConditions: human, HepG2 cells; read-out: Cytotoxicity HepG2 EC50
measuredEndpoint: pEC50
API: returns pEC50 as number; meaning -log10 of concentration in mol/L.

Indicate its recorded pEC50; the compound in question is N=C(N)NCCSc1cc(SCCN)c(NC(=O)c2cc(C(=O)Nc3cc(C(F)(F)F)c(SCCNC(=N)N)cc3SCCN)ncn2)cc1C(F)(F)F 4.33

Indicate its recorded pEC50; the compound in question is c1cc(N2CCNCC2)ccc1-c1ccc(N2CCNCC2)cc1 3.30

Indicate its recorded pEC50; the compound in question is O=C(Nc1ccc(C2CCNCC2)cc1)c1cc(C(=O)Nc2ccc(C3CCNCC3)cc2)ncn1 3.74

Indicate its recorded pEC50; the compound in question is O=C(Nc1ccc(N2CCNCC2)cc1)c1cc(C(=O)Nc2ccc(N3CCNCC3)cc2)ncn1 3.63

Indicate its recorded pEC50; the compound in question is N=C(N)N1CCC(Oc2cc(OC3CCN(C(=N)N)C3)c(C(F)(F)F)cc2NC(=O)c2cc(C(=O)Nc3cc(C(F)(F)F)c(O[C@@H]4CCN(C(=N)N)C4)cc3O[C@@H]3CCN(C(=N)N)C3)ncn2)C1 (some centres unmarked) 4.08

Indicate its recorded pEC50; the compound in question is NCCC#Cc1cncc(-c2cccc(-c3cncc(C#CCCN)c3)c2)c1 3.23

Indicate its recorded pEC50; the compound in question is N=C(N)N1CCN(c2ccc(-c3cc(-c4ccc(N5CCN(C(=N)N)CC5)cc4)ncn3)cc2)CC1 3.34
